# target system: T1, Recombinant Human FGFR2 alpha (IIIc) Fc Chimera Protein, CF (R&D systems, 712-FR-050) (human, UniProt P21802 22-377)
# T1 construct: bought; not shown: Fc part of the chimera
# T1 sequence (P21802 22-377, change not shown): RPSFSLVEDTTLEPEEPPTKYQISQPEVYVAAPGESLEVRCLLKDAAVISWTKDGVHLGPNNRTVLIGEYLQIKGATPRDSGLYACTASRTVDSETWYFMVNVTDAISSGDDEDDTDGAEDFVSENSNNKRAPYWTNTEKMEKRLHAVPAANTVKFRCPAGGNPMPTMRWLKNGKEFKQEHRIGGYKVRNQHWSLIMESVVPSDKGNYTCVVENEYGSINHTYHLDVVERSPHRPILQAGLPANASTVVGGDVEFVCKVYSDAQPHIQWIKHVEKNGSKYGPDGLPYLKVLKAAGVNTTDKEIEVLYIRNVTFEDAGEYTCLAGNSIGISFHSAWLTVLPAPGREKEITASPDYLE
# protocol details: ELISA on plate-bound FGFR2-Fc
Bridge positions count the residues as written; N and C are the ends. Ends that are not written are not given here. COCH2 = acetyl group that carries the bridge
Listed below: ELISA luminescence signal at 10 nmol/L peptide, relative to SEQ ID NO: 47 (=1) values for each entry.

The value of ELISA luminescence signal at 10 nmol/L peptide, relative to SEQ ID NO: 47 (=1) measured for the binder LCVQGNYQNPTQWYYFQLYK(COCH2)W (thioether 2-20 (inferred)) [cyclic peptide SEQ ID NO: 407] turned out to be 0.5 to 0.7 ratio
